target: T1, BSA-conjugated Aβ heptapeptide LVFFAEC (reading uncertain; also: BSA conjugate); test: ELISA;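 also: ELISA binding of human antibody (10 or 2 µg/ml) to plate-coated BSA–peptide conjugates, detected with HRP anti-human Ig and TMB colour, mock-treated BSA as negative control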
T1 construct: also called Peptide 17-22
T1 peptide: LVFFAEC([NSMP-BSA])
Groups on a side chain read outwards from the residue. No end group written: not given here. NSMP = not defined here
MEASURED PROPERTY: OD ratio 17-22/BSA
One number for each entry.

Suppose we examine the binder MS-R IgG1 7.9.H3 (antibody, V domains shown, full-length human IgG1; also called 7.9H3 IgG) VH: QVELVESGGGLVQPGGSLRLSCAASGFTFSSYAMSWVRQAPGKGLEWVSAINYQGNRKYYADSVKGRFTISRDNSKNTLYLQMNSLRAEDTAVYYCARGKGNTHKPYGYVRYFDVWGQGTLVTVSS VL: DIVLTQSPATLSLSPGERATLSCRASQSVSSSYLAWYQQKPGQAPRLLIYGASSRATGVPARFSGSGSGTDFTLTISSLEPEDFATYYCLQIYNMPITFGQGTKVEIK ; what OD ratio 17-22/BSA value has been reported?
6

Reference source for all entries: patent US20100172907A1
